# STUDY TARGET: SRPK1 (Homo sapiens, UniProt Q96SB4)
# Sequence (Q96SB4 whole entry, species assumed): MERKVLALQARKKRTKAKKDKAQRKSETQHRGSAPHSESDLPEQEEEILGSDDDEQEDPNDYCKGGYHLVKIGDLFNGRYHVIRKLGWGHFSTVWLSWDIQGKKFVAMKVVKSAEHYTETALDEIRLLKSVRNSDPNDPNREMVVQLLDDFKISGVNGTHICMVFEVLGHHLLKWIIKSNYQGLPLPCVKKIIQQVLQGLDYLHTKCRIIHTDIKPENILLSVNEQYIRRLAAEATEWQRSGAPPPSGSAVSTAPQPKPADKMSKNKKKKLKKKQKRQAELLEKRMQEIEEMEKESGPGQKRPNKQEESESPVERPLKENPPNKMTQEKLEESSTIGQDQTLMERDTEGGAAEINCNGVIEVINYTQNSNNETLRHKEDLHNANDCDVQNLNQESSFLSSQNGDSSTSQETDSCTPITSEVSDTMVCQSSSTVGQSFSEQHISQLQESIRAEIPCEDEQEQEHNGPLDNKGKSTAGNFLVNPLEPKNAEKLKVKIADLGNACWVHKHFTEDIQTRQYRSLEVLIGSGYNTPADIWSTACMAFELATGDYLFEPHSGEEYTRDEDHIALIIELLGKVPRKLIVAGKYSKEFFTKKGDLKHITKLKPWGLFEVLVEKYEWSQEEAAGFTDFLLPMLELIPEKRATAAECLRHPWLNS
# PROTOCOL TEXT: In vitro SRPK1 assay (Kinase-Glo)
# Assay type: biochemical

- MOLECULE: "CC1(O)CCCN(c2ccc(C3CC3)cc2NC(=O)c2ccc(-c3ccncc3)o2)CC1 (racemic)"
  STUDY TARGET: "SRPK1 (Homo sapiens, UniProt Q96SB4)"
  IC50 / nM: 35
- MOLECULE: "CC1(O)CCN(c2ccc(OC(F)(F)F)cc2NC(=O)c2ccc(C3CCOCC3)o2)CC1"
  STUDY TARGET: "SRPK1 (Homo sapiens, UniProt Q96SB4)"
  IC50 / nM: 16
- MOLECULE: "CNC(=O)C1(C)CCN(c2ccc(C(F)(F)F)cc2NC(=O)c2ccc(-c3ccncc3)o2)CC1"
  STUDY TARGET: "SRPK1 (Homo sapiens, UniProt Q96SB4)"
  IC50 / nM: 5.6
- MOLECULE: "CC1(CN2CCOCC2)CCN(c2ccc(C(F)(F)F)cc2NC(=O)c2ccc(C3CCOCC3)o2)CC1"
  STUDY TARGET: "SRPK1 (Homo sapiens, UniProt Q96SB4)"
  IC50 / nM: 6

====

In this section, each of the compounds is paired with its reported pIC50.
# STUDY TARGET: CYP2D6 (Homo sapiens, UniProt P10635)
# Construct: from tissue; host or cells: human liver microsomes
# Sequence (P10635 whole entry): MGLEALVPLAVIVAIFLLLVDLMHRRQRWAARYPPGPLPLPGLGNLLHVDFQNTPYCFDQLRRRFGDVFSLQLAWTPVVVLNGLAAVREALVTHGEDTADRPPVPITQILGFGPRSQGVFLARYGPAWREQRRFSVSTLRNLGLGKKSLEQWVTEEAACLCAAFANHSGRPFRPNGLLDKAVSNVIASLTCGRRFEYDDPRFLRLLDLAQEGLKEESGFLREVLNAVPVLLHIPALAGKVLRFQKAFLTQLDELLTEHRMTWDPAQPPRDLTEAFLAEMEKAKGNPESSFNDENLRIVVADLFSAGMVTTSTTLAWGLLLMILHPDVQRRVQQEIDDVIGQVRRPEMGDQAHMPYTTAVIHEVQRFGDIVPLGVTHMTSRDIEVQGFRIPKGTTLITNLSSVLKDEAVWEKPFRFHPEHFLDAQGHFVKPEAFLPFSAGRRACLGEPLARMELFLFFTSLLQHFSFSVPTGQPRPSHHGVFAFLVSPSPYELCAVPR
# PROTOCOL TEXT: biochemical
# Format: in vitro ADME
pIC50: −log10 of the molar value.

- COMPOUND: "CC1(C(N)=O)CCN(c2ccc(C(F)(F)F)cc2NC(=O)c2ccc(-c3ccncc3)o2)CC1"
  QUALIFYING SIGN: "="
  pIC50: 5.38
- COMPOUND: "O=C(Nc1cc(C(F)(F)F)ccc1N1CCC(O)(CC2CC2)CC1)c1ccc(C2CCOCC2)o1"
  QUALIFYING SIGN: "="
  pIC50: 7.52
- COMPOUND: "CC1(C(=O)O)CCN(c2ccc(C(F)(F)F)cc2NC(=O)c2ccc(-c3ccncc3)o2)CC1"
  QUALIFYING SIGN: "<"
  pIC50: 4.52
- COMPOUND: "O=C(Nc1cc(C(F)(F)F)ccc1N1CCCC(O)CC1)c1ccc(C2CCOCC2)o1 (racemic)"
  QUALIFYING SIGN: "<"
  pIC50: 4.52
- COMPOUND: "Cc1ccc(N2CCC(C)(CO)CC2)c(NC(=O)c2ccc(C3CCOCC3)o2)c1"
  QUALIFYING SIGN: "<"
  pIC50: 4.52
- COMPOUND: "CC1CCN(c2ccc(C(F)(F)F)cc2NC(=O)c2ccc(C3CCOCC3)o2)CC1"
  QUALIFYING SIGN: "<"
  pIC50: 4.52
- COMPOUND: "CC1(CN2CCCCC2)CCN(c2ccc(C(F)(F)F)cc2NC(=O)c2ccc(C3CCOCC3)o2)CC1"
  QUALIFYING SIGN: "="
  pIC50: 6.70
- COMPOUND: "CC1(O)CCN(c2ccc(Cl)cc2NC(=O)c2ccc(-c3ccncc3)o2)CC1"
  QUALIFYING SIGN: "="
  pIC50: 5.29

====

# STUDY TARGET: CYP2C19 (Homo sapiens, UniProt P33261)
# Construct: from tissue; host or cells: human liver microsomes
# Sequence (P33261 whole entry): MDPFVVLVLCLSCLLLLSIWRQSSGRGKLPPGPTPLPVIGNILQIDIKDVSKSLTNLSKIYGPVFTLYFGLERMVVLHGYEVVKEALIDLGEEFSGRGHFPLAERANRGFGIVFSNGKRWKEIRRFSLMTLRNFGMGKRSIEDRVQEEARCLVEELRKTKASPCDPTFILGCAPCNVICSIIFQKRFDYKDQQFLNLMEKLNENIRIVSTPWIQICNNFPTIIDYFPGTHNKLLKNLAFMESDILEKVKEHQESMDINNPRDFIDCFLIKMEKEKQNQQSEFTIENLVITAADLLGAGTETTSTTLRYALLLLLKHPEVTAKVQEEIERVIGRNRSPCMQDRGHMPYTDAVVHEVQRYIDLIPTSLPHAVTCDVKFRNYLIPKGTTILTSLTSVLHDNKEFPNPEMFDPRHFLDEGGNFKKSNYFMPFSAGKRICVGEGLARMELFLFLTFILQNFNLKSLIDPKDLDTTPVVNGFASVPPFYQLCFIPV
# PROTOCOL TEXT: CYP inhibition assay, human liver microsomes, substrate S-mephenytoin
# Format: in vitro ADME
# CONDITIONS USED: human liver microsomes, 10 min incubation, LC-MS/MS; read-out: CYP Inhibition Activity (IC50/nM) CYP2C19
Reported IC50 values for the following compounds.

- COMPOUND: "CC1(C(=O)N2CCOCC2)CCN(c2ccc(C(F)(F)F)cc2NC(=O)c2ccc(C3CCOCC3)o2)CC1 [Example 90]"
  STUDY TARGET: "CYP2C19 (Homo sapiens, UniProt P33261)"
  IC50: "10300 nM"
- COMPOUND: "COc1ccc(N2CCC(C)(C(=O)N(C)C)CC2)c(NC(=O)c2ccc(C3CCOCC3)o2)c1 [Example 85]"
  STUDY TARGET: "CYP2C19 (Homo sapiens, UniProt P33261)"
  IC50: "21700 nM"
- COMPOUND: "C[C@@]1(O)CCN(c2ccc(C(F)(F)F)cc2NC(=O)c2ccc(-c3ccncc3)o2)C1 [Example 52]"
  STUDY TARGET: "CYP2C19 (Homo sapiens, UniProt P33261)"
  IC50: "540 nM"
- COMPOUND: "CC1(O)CCN(c2ccc(Cl)cc2NC(=O)c2ccc(C3CCOCC3)o2)C1 (racemic) [Example 60]"
  STUDY TARGET: "CYP2C19 (Homo sapiens, UniProt P33261)"
  IC50: "22600 nM"
- COMPOUND: "CC1(O)CCN(c2ccc(C(F)F)cc2NC(=O)c2ccc(-c3ccncc3)o2)CC1 [Example 7]"
  STUDY TARGET: "CYP2C19 (Homo sapiens, UniProt P33261)"
  IC50: "1400 nM"
- COMPOUND: "CC1(O)CCCN(c2ccc(C(F)(F)F)cc2NC(=O)c2ccc(-c3ccncc3)o2)CC1 (racemic) [Example 37]"
  STUDY TARGET: "CYP2C19 (Homo sapiens, UniProt P33261)"
  IC50: "1230 nM"
- COMPOUND: "CC1(C(=O)N2CCCCC2)CCN(c2ccc(C(F)(F)F)cc2NC(=O)c2ccc(C3CCOCC3)o2)CC1 [Example 89]"
  STUDY TARGET: "CYP2C19 (Homo sapiens, UniProt P33261)"
  IC50: "14100 nM"
- COMPOUND: "CC1CCN(c2ccc(C(F)(F)F)cc2NC(=O)c2ccc(C3CCOCC3)o2)CC1 [Example 35]"
  STUDY TARGET: "CYP2C19 (Homo sapiens, UniProt P33261)"
  IC50: "27800 nM"
- COMPOUND: "O=C(Nc1cc(Cl)ccc1N1CCCC(O)CC1)c1ccc(-c2ccncc2)o1 (racemic) [Example 45]"
  STUDY TARGET: "CYP2C19 (Homo sapiens, UniProt P33261)"
  IC50: "100 nM"
- COMPOUND: "CC1(CN2CCOCC2)CCN(c2ccc(C(F)(F)F)cc2NC(=O)c2ccc(C3CCOCC3)o2)CC1 [Example 97]"
  STUDY TARGET: "CYP2C19 (Homo sapiens, UniProt P33261)"
  IC50: "2700 nM"
- COMPOUND: "CC1(O)CCCN(c2ccc(C3CC3)cc2NC(=O)c2ccc(C3CCOCC3)o2)CC1 (racemic) [Example 42]"
  STUDY TARGET: "CYP2C19 (Homo sapiens, UniProt P33261)"
  IC50: "530 nM"
- COMPOUND: "COC1(C)CCN(c2ccc(C(F)(F)F)cc2NC(=O)c2ccc(C3CCOCC3)o2)CC1 [Example 18]"
  STUDY TARGET: "CYP2C19 (Homo sapiens, UniProt P33261)"
  IC50: "4910 nM"
- COMPOUND: "COc1ccc(N2CCC(C)(O)CC2)c(NC(=O)c2ccc(C3CCOCC3)o2)c1 [Example 15]"
  STUDY TARGET: "CYP2C19 (Homo sapiens, UniProt P33261)"
  IC50: "7690 nM"
- COMPOUND: "CC1(O)CCN(c2ccc(OC(F)(F)F)cc2NC(=O)c2ccc(-c3ccncc3)o2)CC1 [Example 10]"
  STUDY TARGET: "CYP2C19 (Homo sapiens, UniProt P33261)"
  IC50: "2670 nM"
- COMPOUND: "O=C(Nc1cc(C2CC2)ccc1N1CCC(O)(CC2CC2)CC1)c1ccc(C2CCOCC2)o1 [Example 71]"
  STUDY TARGET: "CYP2C19 (Homo sapiens, UniProt P33261)"
  IC50: "2700 nM"
